Give TGI for every item shown.
system: SF-295 CNS; test: NCI tumour cell line growth inhibition, 48 h

Ask: // returns reported TGI for input Cc1cc(C2CC(O)C(CO)O2)c(Cl)cc1Cl (stereo unspecified)
Reply: > 100 µM

Ask: Given the compound `O=[N+]([O-])c1ccc2c(c1)C(=NO)c1cc([N+](=O)[O-])ccc1-2` , what is its reported TGI?
Reply: > 100 µM

Ask: Sample CCOP1(=O)C=CC(Cl)=C(C)C1 (stereo unspecified) — what was its TGI?
Reply: > 100 µM

Ask: Quick one: TGI for `CC(C)(CN1CCCCC1)C(=O)/C=C/c1ccc(Cl)c(Cl)c1` ?
Reply: 5.86 µM

Ask: I am curious: what TGI value has been reported for `CC(C)(C)c1cc(OCc2nnc3sc(-c4ccc(Cl)cc4)nn23)c(Cl)cc1OCc1nnc2sc(-c3ccc(Cl)cc3)nn12` ?
Reply: 18.2 µM

Ask: Could you tell me which TGI is on file for `O=C(Nc1cccc(Cl)c1)Nc1nccs1` ?
Reply: 39.5 µM

Ask: What TGI value was documented for this compound, `O=[N+]([O-])c1ccc(-c2noc(-c3ccccc3)c2C2=NCCN2)cc1` ?
Reply: > 100 µM

Ask: What does the record list as TGI for `Cc1cc(N(CCNc2ccnc3cc(Cl)ccc23)Cc2cccs2)nc(Cl)n1` ?
Reply: 2.77 µM

Ask: Need TGI of `CCCNC(=S)N=Nc1c(O)[nH]c2ccccc12` , thanks.
Reply: > 100 µM

Ask: Reported TGI for `CC(C)c1ccc(/C=C2\N=C(c3ccc([N+](=O)[O-])cc3)OC2=O)cc1` : what is it?
Reply: > 100 µM

Ask: Fill blank: measured TGI of the compound CC(C)CSCC1OC(n2cnc3c(N)nccc32)C(O)C1O (stereo unspecified) is ____.
Reply: > 100 µM

* * *

test system: SF-539 CNS; test: NCI tumour cell line growth inhibition, 48 h
quantity: TGI

Ask: Data request, read-out TGI, for `O=C(Nc1ccc(Cl)cc1)c1cc2c(cc1Cl)Sc1nccn1S2(=O)=O`
Reply: > 100 µM

Ask: Give the measured TGI of COC(=O)C1Cc2c([nH]c3ccccc23)C(c2ccccc2O)N1 (stereo unspecified) .
Reply: > 100 µM

Ask: Reported TGI for N#Cc1nc(C(O)c2ccccc2)oc1N (stereo unspecified) : what is it?
Reply: > 100 µM

Ask: What measured TGI goes with `CCOP(=O)(OCC)/C(C#N)=C\c1ccc(OC(C)=O)cc1` ?
Reply: > 100 µM

Ask: Consider the compound shown here: `CO/C(=N\N=Cc1ccccc1)c1ccncc1` What is its recorded TGI?
Reply: > 100 µM

Ask: Given the entry CC1=NN(C(=O)c2ccc(Cl)cc2)C(=O)C1N=Nc1ccc(S(=O)(=O)Nc2ncccn2)cc1 (stereo unspecified) , report its measured TGI.
Reply: > 100 µM

* * *

system: OVCAR-8 ovarian; assay: NCI tumour cell line growth inhibition, 48 h
quantity: TGI (µM)
I only need the number, in µM, no unit after it.

Ask: Data request, read-out TGI, for `COC(=O)c1cc(C)ccc1/C=C1\Cc2cccc(C)c2C1=O`
Reply: 81.4

Ask: What does the data say about its TGI? Entry: CCOP1(=O)C=CC(Cl)=C(C)C1 (stereo unspecified)
Reply: 71.6

Ask: TGI for `O=C(Nc1ccc2ncccc2c1)c1cc2c(cc1Cl)Sc1nccn1S2(=O)=O` ?
Reply: 43.7

* * *

tested on: OVCAR-3 ovarian; assay: NCI tumour cell line growth inhibition, 48 h
quantity: TGI

Ask: Any idea what TGI was measured for CC(C)CSCC1OC(n2cnc3c(N)nccc32)C(O)C1O (stereo unspecified) ?
Reply: > 100 µM

Ask: Fill in the blank: the reported TGI of `O=C(O)c1ccccc1Sc1ccccc1[N+](=O)[O-]` is ____.
Reply: > 100 µM

Ask: Can you share its TGI? I mean this compound: `C[CH2][Pb]([CH2]C)([CH2]C)[O]C(=O)COc1ccccc1`
Reply: 5.27 µM

Ask: Item CC1(O)CCC(C(C)(C)O)CC1 (stereo unspecified) has what recorded TGI?
Reply: > 100 µM

Ask: Given `CSC(Cc1ccc2c(c1)Sc1ccccc1O2)=[N+]1CCOCC1` , state its recorded TGI.
Reply: > 100 µM

Ask: Field request: TGI | item: `COc1ccc2c(ccc3c(C(=O)NCCN(C)CCNC(=O)c4cn(C)c5c4ccc4cc(OC)ccc45)cn(C)c32)c1`
Reply: 2.83 µM

* * *

tested on: BT-549 breast; test: NCI tumour cell line growth inhibition, 48 h
Task for the reader: assign each of the following molecules its reported TGI.
Expressed in µM, but write only the number.

Ask: Please report the recorded TGI for `COc1ccc2nc3ccccc3c(NCc3ccc(Cl)cc3)c2c1` .
Reply: 20.8

Ask: Requested read-out: TGI. Entry: `CN1CCN(CC(=O)N2c3ccccc3Sc3cc4ccccc4cc32)CC1`
Reply: 30.2

Ask: Reported TGI for `C=CC(=O)N1C[C@H](COc2nc(Nc3cnn(C)c3)nc3[nH]cc(Cl)c23)[C@@H](OC)C1` : what is it?
Reply: 8.34

Ask: // returns reported TGI for input `CN(C)CCCNCc1ccc(-c2ccc(F)c(Cl)c2)o1`
Reply: 26

* * *

system: SNB-78 CNS; assay: NCI tumour cell line growth inhibition, 48 h
quantity: TGI

Ask: # input compound: S=C(Nc1ccccc1)Nc1ccccc1SC(/C=C/NNC1=NC(c2ccccc2)C(c2ccccc2)=NN1)c1ccccc1 (stereo not drawn) ; wanted: its TGI
Reply: > 100 µM

Ask: Find the recorded TGI belonging to CCOC(=O)C1=C(OC(OCC)C(C)[Se]c2ccccc2)CCC1 (stereo not drawn) and report it.
Reply: > 100 µM

Ask: What measured TGI goes with COc1cc2c(oc(=O)c3cc(C)cc(OC)c32)c2c(C3OC(C)C(O)C(C)(O)C3O)ccc(O)c12 (stereo not drawn) ?
Reply: 5.32 µM

* * *

tested on: HOP-92 NSCLC; assay: NCI tumour cell line growth inhibition, 48 h
quantity: TGI

Ask: Bench note: what TGI did `CC1(C)CN=C(Nc2ccc(F)cc2)S1` show?
Reply: > 100 µM

Ask: So what does the record say about TGI for CC(=O)OC1CC2C(C)(C)C(=O)C=C[C@]2(C)C2CC[C@]3(C)C(OCC(=O)[C@H]3c3ccoc3)[C@]12C (stereo partly drawn) ?
Reply: 35.5 µM

Ask: Any idea what TGI was measured for `O=C(CCc1ccc(O)c(O)c1)OCCc1ccccc1` ?
Reply: > 100 µM

Ask: Which value of TGI has been reported for `CN/N=C(\C)c1c(O)cc(C)oc1=O` in the records?
Reply: > 100 µM

Ask: If you can, please state the reported TGI value of `Oc1ccc(-c2nc(=S)[nH][nH]2)cc1` .
Reply: > 100 µM

Ask: # get_value(readout='TGI', item= `Cc1nn(CCO)c(C)c1N=[N+]([O-])c1c(C)nn(CCO)c1C` )
Reply: 7.19 µM

Ask: Data request, read-out TGI, for `NC(=O)NN/C=C(/C=Nc1ccccc1)[N+](=O)[O-]`
Reply: > 100 µM

Ask: Look at this compound and give its reported TGI. `C/C(=N\NC(=O)c1ccncc1)c1cccc(F)c1`
Reply: > 10 µM

Ask: Give the measured TGI of O=C1CC2(CCC(O)(c3ccccc3)C(C(=O)c3ccccc3)C2)C(=O)c2ccccc2N1 (stereo not drawn) .
Reply: > 100 µM

Ask: // returns reported TGI for input CC1(O)CCC(C(C)(C)O)CC1 (stereo not drawn)
Reply: > 100 µM

Ask: Any idea what TGI was measured for `C=C1C(=O)O[C@H]2[C@H]1CC/C(COC(=O)/C=C\C(=O)NCc1ccc(Cn3c(=O)sn(CCCI)c3=O)cc1)=C\CC[C@@]1(C)O[C@@H]21` ?
Reply: 1.31 µM

Ask: Value lookup for TGI; key = `c1ccc2c(CC3NCCN3)cccc2c1`
Reply: > 100 µM

Ask: Query: TGI; subject: `Cc1ccc(Cc2nc(=S)[nH][nH]2)cc1`
Reply: > 100 µM

Ask: Reported TGI, compound `c1ccc([Si](OCCN2CC2)(c2ccccc2)c2ccccc2)cc1` : ____
Reply: 18.4 µM

Ask: Sample `Cc1cc2c3ccccc3nc2c2cc[nH]c(C)c12` — what was its TGI?
Reply: 49.9 µM

Ask: Which TGI is listed for `C=C1C(=O)O[C@H]2[C@H]1CC/C(COC(=O)CCSSCCC(=O)OC/C1=C/CC[C@@]3(C)O[C@H]3[C@H]3OC(=O)C(=C)[C@@H]3CC1)=C\CC[C@@]1(C)O[C@@H]21` ?
Reply: 2.54 µM

Ask: Find the recorded TGI belonging to `CN1CCN(C(=S)N(C(=O)c2ccco2)C2CCCCC2)CC1` and report it.
Reply: > 100 µM

Ask: So what does the record say about TGI for N#Cc1nc(C(O)c2ccccc2)oc1N (stereo not drawn) ?
Reply: > 100 µM
